target: Porcine Ventricle myofibrils (left ventricle of Yucatan minipigs) (Sus scrofa, UniProt P79293); construct: Myofibrils from porcine cardiac muscle was isolated from the left ventricle of Yucatan minipigs; tissue Exemplar Genetics; host or cells: left ventricle of Yucatan minipigs; assay: Myofibril ATPase assay (PK/LDH NADH-coupled), ventricle myofibrils; format: biochemical; settings: Table 8
Sequence (P79293 whole entry): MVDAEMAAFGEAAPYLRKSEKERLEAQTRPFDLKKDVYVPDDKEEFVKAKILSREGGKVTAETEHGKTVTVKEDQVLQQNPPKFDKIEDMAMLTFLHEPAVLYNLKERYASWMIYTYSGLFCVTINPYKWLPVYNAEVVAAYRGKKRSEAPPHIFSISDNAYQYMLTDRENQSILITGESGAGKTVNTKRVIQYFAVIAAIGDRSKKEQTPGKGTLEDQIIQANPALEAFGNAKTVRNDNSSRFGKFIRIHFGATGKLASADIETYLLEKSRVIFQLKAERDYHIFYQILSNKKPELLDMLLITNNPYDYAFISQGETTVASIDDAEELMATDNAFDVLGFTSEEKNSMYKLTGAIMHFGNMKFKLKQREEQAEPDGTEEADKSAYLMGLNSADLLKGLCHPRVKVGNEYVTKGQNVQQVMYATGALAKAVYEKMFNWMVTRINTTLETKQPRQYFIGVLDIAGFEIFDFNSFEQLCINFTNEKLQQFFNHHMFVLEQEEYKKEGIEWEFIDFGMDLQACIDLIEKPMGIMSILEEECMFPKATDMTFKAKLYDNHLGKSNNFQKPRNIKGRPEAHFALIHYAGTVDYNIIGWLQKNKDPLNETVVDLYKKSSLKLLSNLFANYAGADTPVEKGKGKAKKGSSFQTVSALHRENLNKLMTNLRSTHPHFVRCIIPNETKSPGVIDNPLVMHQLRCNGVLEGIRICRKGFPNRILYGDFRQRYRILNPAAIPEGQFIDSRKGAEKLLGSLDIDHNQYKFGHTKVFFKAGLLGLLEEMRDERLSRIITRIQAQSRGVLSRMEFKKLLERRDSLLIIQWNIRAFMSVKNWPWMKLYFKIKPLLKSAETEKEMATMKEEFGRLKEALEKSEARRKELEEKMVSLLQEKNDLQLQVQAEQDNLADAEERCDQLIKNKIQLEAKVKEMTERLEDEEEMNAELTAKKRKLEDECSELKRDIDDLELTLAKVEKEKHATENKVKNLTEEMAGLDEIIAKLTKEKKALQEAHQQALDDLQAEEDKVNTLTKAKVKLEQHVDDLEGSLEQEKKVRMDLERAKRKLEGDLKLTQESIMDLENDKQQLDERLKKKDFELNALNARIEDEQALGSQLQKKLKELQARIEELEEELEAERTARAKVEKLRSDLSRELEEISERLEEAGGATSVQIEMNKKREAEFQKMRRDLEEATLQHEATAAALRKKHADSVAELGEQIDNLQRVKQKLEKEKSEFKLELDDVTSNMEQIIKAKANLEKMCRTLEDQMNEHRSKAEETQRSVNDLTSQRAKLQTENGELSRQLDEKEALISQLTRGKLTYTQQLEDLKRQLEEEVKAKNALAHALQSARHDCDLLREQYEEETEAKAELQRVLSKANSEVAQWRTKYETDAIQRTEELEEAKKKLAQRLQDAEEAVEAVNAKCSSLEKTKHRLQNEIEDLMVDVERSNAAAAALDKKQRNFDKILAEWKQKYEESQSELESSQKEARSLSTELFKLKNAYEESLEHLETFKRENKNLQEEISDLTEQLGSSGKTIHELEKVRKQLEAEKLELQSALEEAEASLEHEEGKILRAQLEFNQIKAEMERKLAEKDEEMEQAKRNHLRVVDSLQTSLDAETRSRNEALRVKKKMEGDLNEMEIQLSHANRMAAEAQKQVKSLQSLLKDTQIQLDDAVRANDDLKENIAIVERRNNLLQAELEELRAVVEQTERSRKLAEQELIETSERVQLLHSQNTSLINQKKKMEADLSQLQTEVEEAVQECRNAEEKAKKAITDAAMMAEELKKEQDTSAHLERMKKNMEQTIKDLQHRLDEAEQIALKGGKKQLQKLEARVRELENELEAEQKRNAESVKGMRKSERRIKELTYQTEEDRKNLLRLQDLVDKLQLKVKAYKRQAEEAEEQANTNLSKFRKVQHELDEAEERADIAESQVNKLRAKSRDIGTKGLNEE
parameter: Porcine Ventricle IC25 (µM)
Write the number in µM without appending the unit.

For reference, reported Porcine Ventricle IC25 for C[C@@H](NC(=O)CN1Cc2cc(F)c(F)cc2NC1=O)c1ncc(C#N)cc1F stands at 100.00

# Porcine Ventricle IC25 (molecule: C[C@H](NC(=O)CN1Cc2cc(F)cc(Cl)c2NC1=O)c1ccc(C#N)cc1F ) is 1.384

// recorded Porcine Ventricle IC25 for Cc1nc(C#N)ncc1[C@H](C)NC(=O)CN1Cc2c(ccc(F)c2F)NC1=O : 7.734

The measured Porcine Ventricle IC25 associated with COc1cccnc1[C@H](C)NC(=O)CN1Cc2cc(F)ccc2NC1=O reads 100

* * *

test system: Porcine Atria myofibrils; test: Myofibril ATPase assay (PK/LDH NADH-coupled), atria myofibrils; format: biochemical; conditions: Table 8
Lab note: cut-off is 0.3 µM. Strictly less in Porcine Atria IC25 is rule met. Exactly 0.3 µM or more is rule not met.

Request: Report whether reported Porcine Atria IC25 is lower than 0.3 µM (strictly) for C[C@@H](NC(=O)CN1Cc2c(ccc(F)c2F)NC1=O)c1nnc(-c2ccccc2F)s1 [Compound B95]
Response: rule not met

Request: Determine whether this compound shows Porcine Atria IC25 lower than 0.3 µM (ties excluded): C[C@H](NC(=O)CN1Cc2c(ccc(F)c2F)NC1=O)c1cc2c(cn1)N(C)CCO2 [Compound B361]
Response: rule not met

Request: Take the compound C[C@@H](NC(=O)CN1Cc2cc(CN(C)C)ccc2NC1=O)c1ncc(C#N)cc1F [Compound B251] and say whether its Porcine Atria IC25 is less than 0.3 µM.
Response: rule not met

Request: Could you please tell me whether Porcine Atria IC25 recorded for Cc1cccc2c1C1(CC1)N(CC(=O)N[C@@H]1COc3cc(C#N)cnc31)C(=O)N2 [Compound B299] is less than 0.3 µM?
Response: rule not met

Request: Take the compound Cc1cc(F)cc2c1CN(CC(=O)N[C@H](C)c1ccc(C#N)cc1F)C(=O)N2 [Compound B56] and say whether its Porcine Atria IC25 is less than 0.3 µM.
Response: rule not met

Request: # strict comparison: is reported Porcine Atria IC25 < 0.3 µM? input = C[C@H](NC(=O)CN1Cc2c(ccc(F)c2F)NC1=O)c1ncc(C#N)cc1F [Compound B142]
Response: rule met

Request: Given the entry C[C@H](NC(=O)CN1C(=O)Nc2ccccc2[C@H]1C)c1ccc(F)cc1F [Compound B156] , would its reported Porcine Atria IC25 be below 0.3 µM?
Response: rule not met

Request: Please state whether Porcine Atria IC25 is below 0.3 µM for Cc1nc(C#N)cnc1[C@@H](CO)NC(=O)CN1Cc2c(ccc(F)c2F)NC1=O [Compound B354]
Response: rule met

Request: Take the compound C[C@@H](NC(=O)CN1Cc2c(ccc(F)c2F)NC1=O)c1ncc(C(N)=O)cc1O [Compound B250] and say whether its Porcine Atria IC25 is less than 0.3 µM.
Response: rule not met

Request: Criterion: Porcine Atria IC25 strictly below 0.3 µM. Is it met by C[C@H](NC(=O)[C@@H](C)N1Cc2c(F)cccc2NC1=O)c1ccc(F)cc1F [Compound B223] ?
Response: rule not met

Request: Quick check: Porcine Atria IC25 of C[C@@H](NC(=O)CN1Cc2c(ccc(F)c2F)NC1=O)c1ncc(Cl)cc1F [Compound B81] under 0.3 µM?
Response: rule met

Request: Please check: Porcine Atria IC25 for C[C@H](NC(=O)[C@H](C)N1Cc2c(ccc(F)c2F)NC1=O)c1ccc(F)cc1F [Compound B237] , strictly under 0.3 µM or not?
Response: rule met

Request: Is Porcine Atria IC25 of O=C(CN1Cc2c(ccc(F)c2F)NC1=O)N[C@@H]1COc2c(F)cc(F)cc2C1 [Compound B101] strictly below 0.3 µM?
Response: rule met

Request: hey, is Porcine Atria IC25 for C[C@@H](NC(=O)C(C)(C)N1Cc2c(ccc(F)c2F)NC1=O)c1ncc(C#N)cc1F [Compound B266] lower than 0.3 µM or not?
Response: rule met

Request: Criterion: Porcine Atria IC25 strictly below 0.3 µM. Is it met by Cc1cccnc1[C@@H](C)NC(=O)CN1Cc2cc(F)ccc2NC1=O [Compound B192] ?
Response: rule not met

Request: Say whether its Porcine Atria IC25 is strictly beneath 0.3 µM. Entry: C[C@@H](NC(=O)[C@H](C)N1Cc2cc(F)ccc2NC1=O)c1ccc(F)cc1F [Compound B239]
Response: rule not met

Numbers sourced from patent US12509431B2.
